- Tested on: Zika virus NS2B-NS3 protease
- assay.notes: Primary screen GU AMC qHTS for Zika virus inhibitors (AID 1347154); further: nearly all actives have a fitted effect of over 70% in size
- run.conditions: Zika NS2B-NS3 unlinked protease, AMC fluorogenic substrate; series mostly up to 54.1 µM
Results filed as inconclusive are left out. Calls of active or inactive are those of the source. The call rests on the fitted dose curve; in most records, active means well fitted inhibition curve with a large enough effect; inconclusive means small, poorly fitted or top-dose-only effect; inactive means flat fitted curve, though single readings scatter.

# compound, activity change, negative = inhibition
records = [
    ("C#CCCCCCCCCCCCCCCCC(=O)O", "inactive"),
    ("CC1=C(/C=C/C(=C/C=C/C(C)=C/C(=O)O)c2ccc(C)cc2)C(C)(C)CCC1", "inactive"),
    ("NC(C(=O)O)c1ccc(P(=O)(O)O)cc1 (stereo not given)", "inactive"),
    ("COc1ccccc1N1CCN(CCn2c(=O)[nH]c3c([nH]c4ccccc43)c2=O)CC1", "inactive"),
    ("O=C(O)/C=C1\\CCCc2ccccc2[C@H]1O", "inactive"),
    ("C[C@@]12CCC[C@H]1C1CC[C@H]3C[C@H](O)CC[C@]3(C)C1CC2 (stereo not given in full)", "inactive"),
    ("Cc1ncc2c(c1O)COP(=O)(O)OC2", "inactive"),
    ("CC1=C(/C=C/C(C)=C\\C=C\\C(C)=C\\C(=O)O)C(C)(C)CCC1", "inactive"),
    ("C[C@@H](/C=C\\c1cccc(Oc2ccc(F)cc2)c1)N(O)C(N)=O", "inactive"),
    ("CC(C)[C@H]1c2ccc(F)cc2CC[C@@]1(CCN(C)CCCc1nc2ccccc2[nH]1)OC(=O)C1CC1", "inactive"),
    ("OC[C@H]1O[C@H](n2cnc3c(NC4CCCC4)nc(Cl)nc32)[C@@H](O)[C@@H]1O", "inactive"),
    ("CC(C)c1ccc2c(c1)CC[C@H]1[C@](C)(CN)CCC[C@]21C", "inactive"),
    ("C/C=C/CC(C)C(O)C1C(=O)NC(CC)C(=O)N(C)CC(=O)N(C)C(CC(C)C)C(=O)NC(C(C)C)C(=O)N(C)C(CC(C)C)C(=O)NC(C)C(=O)NC(C)C(=O)N(C)C(CC(C)C)C(=O)N(C)C(CC(C)C)C(=O)N(C)C(C(C)C)C(=O)N1C (stereo not given)", "inactive"),
    ("CC[C@@H](C)[C@@H](CO[C@@H](Cc1ccccc1)C(=O)N[C@@H](CCS(C)(=O)=O)C(=O)OC(C)C)NC[C@@H](N)CS", "inactive"),
    ("CNCC[C@H](Oc1ccccc1OC)c1ccccc1", "inactive"),
    ("N[C@@]1(C(=O)O)CN[C@@H](C(=O)O)C1", "inactive"),
    ("O=C(Nc1ccccc1)C12CC1/C(=N\\O)c1ccccc1O2 (stereo not given)", "inactive"),
    ("COc1c(C=O)c(O)cc2c1C(=O)c1ccccc1C2=O", "inactive"),
    ("O[C@@H](c1ccccc1)C1CCN(CCc2ccccc2)CC1", "inactive"),
    ("C[C@H](CCC(=O)O)[C@H]1CCC2C3CC[C@@H]4C[C@H](O)CC[C@]4(C)C3CC[C@@]21C (stereo not given in full)", "inactive"),
]

Cited source: PubChem BioAssay (NCATS)
